FYI, the data here is from ChEMBL document CHEMBL1201862.

Answer each item with its documented GI50.
# Test system: HT-29
# assay-explanation: NCI tumour cell line growth inhibition, 48 h
Active and inactive are the calls of the source. Rule as the data show it: active = GI50 up to about 1.1 µM and inactive = higher.

- compound: "CC[C@@H]1CC[C@@H]2[C@H](CC[C@]3(C)[C@@H](O)CC[C@@H]23)[C@H]1C(=O)O"
  GI50: "> 100 µM (inactive)"
- compound: "CN(C)CCNC1=CC(=O)c2c(O)ccc(O)c2C1=O"
  GI50: "2.59 µM (inactive)"
- compound: "COc1ccc([C@H]2C=[N+]([O-])O[C@H](OC3CCCC3)[C@@H]2OC(C)=O)cc1OC"
  GI50: "20.7 µM (inactive)"
- compound: "CCOC1=C2N=C(Cc3ccc(F)cc3)NC2C(=O)c2ccccc21 (stereo not given)"
  GI50: "21.1 µM (inactive)"
- compound: "c1ccc(CSP234N5CCN2CCN3CCN4CC5)c(CSP234N5CCN2CCN3CCN4CC5)c1"
  GI50: "37.2 µM (inactive)"

Look up GI50 for the entries below, preserving their order.
1. C=C(CS(=O)(=O)c1ccccc1)C(=O)OCC
2. CSC1(Cc2ccccn2)C(=O)Nc2cccc([N+](=O)[O-])c21 (stereo not given)
3. CCOC(=O)NC(Nc1ccc(S(=O)(=O)Nc2ncccn2)cc1)(C(=O)OCC)C(F)(F)F (stereo not given)
4. O=C(O)c1ccccc1CC1Cc2ccccc2C1=O (stereo not given)
5. O=C(Nn1c(-c2cccs2)nc2ccc(I)cc2c1=O)c1ccccc1

**A:**
1: 11.2 µM (inactive); 2: > 100 µM (inactive); 3: > 100 µM (inactive); 4: > 100 µM (inactive); 5: 29.8 µM (inactive)

---

# Tested on: M14
# assay-explanation: NCI tumour cell line growth inhibition, 48 h
Counter-ions that a name gives are not always drawn. Calls of active or inactive are those of the source. Cut-off read from the data, not from the text of the source: active = GI50 up to about 1.1 µM and inactive = higher.
Just give me one of these, please: active, inactive

**Q:** Field: outcome | Entry: COc1cc2c(cc1OC)C(OC)N(C)c1c-2ccc2cc3c(cc12)OCO3 (configuration not stated)
**A:** inactive

**Q:** Field: outcome | Entry: CC(C)=CCC[C@H](C)[C@H]1CC[C@@H](C)c2cc(O)c(C)cc21
**A:** inactive

**Q:** Field: outcome | Entry: CC(C)C1CC(CO)(CNc2nc(N)nc(Cl)c2/C=N\O)C1 (configuration not stated)
**A:** inactive

**Q:** Field: outcome | Entry: COc1ccc2cc3[n+](cc2c1OC)CCc1cc2c(cc1-3)OCO2 [BERBERINE SULFATE]
**A:** inactive

**Q:** Field: outcome | Entry: CCOC(=O)C(NC(=O)CC)(Nc1ccc(F)cc1F)C(F)(F)F (configuration not stated)
**A:** inactive

---

# Test system: LOX IMVI
# assay-explanation: NCI tumour cell line growth inhibition, 48 h
Calls of active or inactive are those of the source. Rule as the data show it: active = GI50 up to about 1.1 µM and inactive = higher.
Just give me one of these, please: 1.0 (active), 0.0 (inactive)

- molecule: "Cc1ccc(-c2nc(-c3nccc4ccccc34)oc2-c2ccccc2)cc1"
  class: 0.0
- molecule: "Cc1cc(/C=C/c2cc[n+](C)c3ccccc23)c(O)c2ncccc12"
  class: 0.0
- molecule: "COc1cc2c3c(c4ccc(OC)c(OC)c4c2cc1OC)CN1CCC[C@@H]1C3"
  class: 1.0

**Q:** Field: outcome | Entry: CCOc1ccc2c(c1)NC(=O)C(C1OC(c3ccccc3)=CC1=O)S2 (centres undefined)
**A:** 0.0

**Q:** Field: outcome | Entry: O=C(CC(C(=O)c1ccsc1)c1cccs1)c1ccccc1 (centres undefined)
**A:** 0.0

**Q:** Field: outcome | Entry: OC1COC(n2c3ccc(Br)cc3c3ccc4c5ccccc5[nH]c4c32)C(O)C1O (centres undefined)
**A:** 0.0

**Q:** Field: outcome | Entry: CC(=O)c1sc(Nc2ccc(Cl)c(Cl)c2)nc1C
**A:** 0.0

**Q:** Field: outcome | Entry: CCCCCN(CCCCC)C(=O)[C@H](CCC(=O)O)NC(=O)c1cc2ccccc2[nH]1
**A:** 0.0

**Q:** Field: outcome | Entry: N#CC(=N)c1ncn(-c2ccccc2N)c1N
**A:** 0.0

**Q:** Field: outcome | Entry: CC[C@H](C)[C@H]1NC(=O)[C@@H](NC(=O)[C@@H](CC(C)C)N(C)CC2CCCN2C(=O)C(C)=O)[C@@H](C)OC(=O)[C@H](Cc2ccc(OC)cc2)N(C)C(=O)C2CCCN2C(=O)[C@H](CC(C)C)NC(=O)[C@@H](C)C(=O)[C@H](C(C)C)OC(=O)C[C@@H]1O (some centres undefined)
**A:** 1.0

---

# System: SF-539
# assay-explanation: NCI tumour cell line growth inhibition, 48 h
Activity calls are given as the source filed them. Cut-off read from the data, not from the text of the source: active = GI50 up to about 1.1 µM and inactive = higher.
quantity-name: GI50

- molecule: "O=C1NC2(NC(=O)C1=O)Nc1ccccc1S2"
  quantity-name: "GI50"
  observed: "27 µM (inactive)"
- molecule: "CC[C@@H]1CC[C@@H]2[C@H](CC[C@]3(C)[C@@H](O)CC[C@@H]23)[C@H]1C(=O)O"
  quantity-name: "GI50"
  observed: "> 100 µM (inactive)"
- molecule: "CC1(C)C2CCC3(OCCO3)C1C(O)C2 (centres undefined)"
  quantity-name: "GI50"
  observed: "> 100 µM (inactive)"
- molecule: "CO[C@]12CC(=O)C3(C(C[C@H]4CC5CC[C@H]6C[C@@H](OC(C)=O)CC[C@]6(OC(C)=O)C5C[C@@]43C)C1)C1C[C@H]3[C@@H]4CC[C@H]5C[C@@H](OC(C)=O)CC[C@]5(OC(C)=O)[C@H]4CC[C@]3(C)C12 (some centres undefined)"
  quantity-name: "GI50"
  observed: "> 100 µM (inactive)"
- molecule: "CCCCCCCSCC1C(=O)C23C(O)C1CCC2C12COC3(O)C(O)C1C(C)(C)CCC2O (centres undefined)"
  quantity-name: "GI50"
  observed: "13.2 µM (inactive)"
- molecule: "COc1ccc(NC(=S)N/N=C(\\C)c2nc3cccnc3[nH]2)cc1"
  quantity-name: "GI50"
  observed: "2.9 µM (inactive)"

Look up GI50 for the entries below, preserving their order.
1. COc1ccc([C@@H]2CC(=O)NCCCCNCCCN2)cc1
2. CC(NC(=O)Cc1ccccc1)NC(=O)C(C)C(=O)NCc1ccccc1 (centres undefined)
3. COc1ccc(C2=Nc3c(nc(OC)[nH]c3=O)NC(c3ccccc3)C2)cc1 (centres undefined)

**A:**
1. > 100 µM (inactive)
2. 82.4 µM (inactive)
3. 28.1 µM (inactive)

---

# Test system: CCRF-CEM
# assay-explanation: NCI tumour cell line growth inhibition, 48 h
Calls of active or inactive are those of the source. Cut-off read from the data, not from the text of the source: active = GI50 up to about 1.1 µM and inactive = higher.
Answer each item with its documented GI50.

Some molecules with recorded GI50:
- molecule: "CCOc1ccc2c(c1)NC(=O)C(C1OC(c3ccccc3)=CC1=O)S2 (stereo not given)"
  target-desc: "CCRF-CEM"
  GI50: "1.9 µM (inactive)"
- molecule: "O=C1CCC(Cc2ccc(Cl)cc2Cl)C(=O)N1 (stereo not given)"
  target-desc: "CCRF-CEM"
  GI50: "> 100 µM (inactive)"
- molecule: "COc1cc(-c2cc(=O)c3c(OC)c(OC)c(OC)c(OC)c3o2)cc(OC)c1OC [HEPATAMETHOXYFLAVONE]"
  target-desc: "CCRF-CEM"
  GI50: "30.5 µM (inactive)"

Look up GI50 for the entries below, preserving their order.
1. CCOC(=O)C(Cc1ccc2c(c1)CCC2)Cc1ccc2c(c1)CCC2
2. CCOC(=O)c1c(NC(=O)c2ccccc2)sc2c1CCCC2
3. CC1=C(C(N)=O)C(c2ccncc2)C(C#N)C(=O)N1 (stereo not given)
4. CC1CC[C@@]2(OC1)OC1C[C@H]3[C@@H]4CCC5CC(O)CC[C@]5(C)[C@H]4C/C(=N\N(C)C)[C@]3(C)C1[C@@H]2C (stereo not given in full)

**A:**
1: 27.1 µM (inactive); 2: > 100 µM (inactive); 3: > 100 µM (inactive); 4: 37.8 µM (inactive)

Look up GI50 for the entries below, preserving their order.
1. COc1ccc(C(=O)C#Cc2cnc(O)nc2O)cc1
2. CCOC(=O)C1CCC(=O)N1C(=O)c1ccccc1 (stereo not given)
3. CC1CC(NN(C)C)C2(C(N)=O)C(N)=NC(=O)C12C#N (stereo not given)

**A:**
1. 2.52 µM (inactive)
2. > 100 µM (inactive)
3. > 100 µM (inactive)

---

Answer each item with its documented GI50.
# System: OVCAR-5
# assay-explanation: NCI tumour cell line growth inhibition, 48 h
Calls of active or inactive are those of the source. No stated cut-off is given here; in the data, active = GI50 up to about 1.1 µM and inactive = higher.

Some molecules with recorded GI50:
- molecule: "Cc1nc2sccn2c1C(=O)N/N=C1\\SCC(=O)N1C"
  quantity-name: "GI50"
  observed: "> 100 µM (inactive)"
- molecule: "CCOC(=O)c1sc2c(c1OC(=O)c1cc(OC)c(OC)c(OC)c1)c(=O)n(-c1ccccc1)c(=S)n2-c1ccccc1"
  quantity-name: "GI50"
  observed: "> 100 µM (inactive)"
- molecule: "COc1ccc(OC)c(N2C(=O)/C(=C\\c3ccccc3)SC2c2cc(OC)c(OC)c(OC)c2)c1 (centres undefined)"
  quantity-name: "GI50"
  observed: "> 93.3 µM (inactive)"

Now take the following molecule into account.
**Q:** Data request, read-out GI50, for NCS(=O)(=O)O
**A:** > 100 µM (inactive)
